Tested on: COS-7 (African green monkey kidney fibroblast) normal cell line
Assay: sulforhodamine B (SRB) cytotoxicity assay on normal cell line COS-7
Assay type: cell-based
Details: nondetectable effect on cell proliferation
Method: The compounds were screened in vitro against two cancer cell lines, MCF-7 and MDA-MB-231 (human mammary adenocarcinoma), and the normal cell line Cos-7 (African green monkey kidney fibroblast). […] The viability of the cells used in the experiments exceeded 95%, as determined with trypan blue. The human tumor cytotoxicity was assessed using the protein-binding dye sulforhodamine B (SRB) in a microculture assay to measure the cell growth as described by. […]
Metric: Non-Cytotoxic concentration on normal cell line COS-7 (µM)
Return type: number; implicit unit µM.

Please review the entries below; each comes with its answer.
{"Smiles Code": "CC1=NN=C(CN)[S][Sn]([c]2ccccc2)([c]2ccccc2)[O]c2cc(C)oc(=O)c21", "Reading": 0.02}
{"Smiles Code": "CC1=NN=C(Nc2ccccc2)[S][Sn]([CH]2CCCCC2)([CH]2CCCCC2)[O]c2cc(C)oc(=O)c21", "Reading": 0.01}

Give Non-Cytotoxic concentration on normal cell line COS-7; test system COS-7 (African green monkey kidney fibroblast) normal cell line; compound CCCCCCC[CH2][Sn]1([CH2]CCCCCCC)[O]c2cc(C)oc(=O)c2C(C)=NN=C(N)[S]1
0.2

Write down the reported Non-Cytotoxic concentration on normal cell line COS-7 (system: COS-7 (African green monkey kidney fibroblast) normal cell line) of CCC[CH2][Sn]1([CH2]CCC)[O]c2cc(C)oc(=O)c2C(C)=NN=C(N)[S]1
0.02
